Test system: SK-MEL-28 melanoma
Assay: NCI tumour cell line growth inhibition, 48 h
Catalogue of TGI readings, one per entry.

COMPOUND	TGI
COC1OC(=O)[C@H]2O[N+]([O-])=C(C)[C@@H]12 (stereo partly drawn)	> 100 µM
COc1ccc(Nc2c(C#N)c3n(c4ccccc24)c2ccccc2[n+]3C)cc1OC	17.9 µM
O=C(Nc1nc2ccccc2s1)OCC(F)(F)F	> 100 µM
COc1ccc(/C(=C/n2ccnc2)C(=O)c2ccc(OC)c(OC)c2)cc1	> 100 µM
O=c1[nH]c2nc3ccccc3c(=O)n2/c1=C/c1ccc(O)cc1	> 100 µM
Cc1nn(-c2ccc(F)cc2)c2ncnc(Nc3ccc(NC(=O)Nc4ccc(Cl)c(C(F)(F)F)c4)cc3)c12	5.68 µM
CCOC(=O)c1sc2nc(SC)nc3c2c1N=CN3c1ccc(Br)cc1	> 100 µM
O=C(NS(=O)(=O)Nc1ccc(Cl)cc1)OCc1ccc(Cl)cc1Cl	97.5 µM
CN(C)CC(=O)N1CCC(c2ccc(NC(=O)c3ncc(C#N)[nH]3)c(C3=CCCCC3)c2)CC1	4.68 µM
COC(=O)C(c1[nH]nc2ccccc12)C(C(=O)OC)c1[nH]nc2ccccc12 (stereo not drawn)	> 100 µM
O=C1CC2(C[C@@H]3CCCCCCCCC[C@@H](C3)C2)N1 (stereo partly drawn)	31.5 µM
CCCCCCCCCCCCCC(=S)NCCCC[C@H](NC(=O)OCc1ccccc1)C(=O)Nc1ccccc1	> 100 µM
C=C1CCC2C(/C=C(\C)CCC1O)OC(=O)C2C (stereo not drawn)	> 100 µM
Cc1sc2nc3n(c(=O)c2c1C)N=CN(c1ccccc1)C3	> 100 µM
CCC(=O)C(c1ccccc1)c1ccccn1 (stereo not drawn)	> 100 µM
OCC1CCCC(n2cnc3c(=S)nc[nH]c32)O1 (stereo not drawn)	> 100 µM
COc1cc2c3c(cccc3c1)C(=O)N(CCN1CCCC1)C2=O	3.43 µM
CCN(CC)CCOC(c1cc(OC)ccc1OC)c1ccc2n1-c1ccccc1OC2 (stereo not drawn)	29 µM
CC[C@@H]1CC[C@@H]2[C@H](CC[C@]3(C)[C@@H](O)CC[C@@H]23)[C@H]1C(=O)O	> 100 µM
COc1cc(COC(=O)N[C@H](C(=O)O)C(C)(C)C)c([N+](=O)[O-])cc1OC	> 100 µM
CCOC(=O)C1(CC)CCCCC(=O)N1 (stereo not drawn)	> 100 µM
CCOc1ccc(N/C(=C(/C(Cl)=C(/Cl)NCCN)[N+](=O)[O-])n2nnc3ccccc32)cc1	> 100 µM
C=C1C(O)C2CCC(C)(C)C(=O)C2=C(CC(C)C)C12CC2 (stereo not drawn)	> 100 µM
CCN(CC)CCn1c2cc3c(cc2c(=O)c2cccnc21)OCCO3	> 10 µM
C[C@@H]1CC[C@@H]2[C@@H]1[C@H](OC(=O)/C=C/c1ccccc1)[C@]1(c3ccccc3)C[C@@H](OC(=O)CO)[C@@]2(C)O1	33.4 µM
c1cc(-c2cnc(-c3ccc4c(c3)CCCO4)o2)ccn1	32.2 µM
CCN1CCN(c2nc(NCCCNc3ccnc4cc(Cl)ccc34)c3ccccc3n2)CC1	3.9 µM
C1COCCN1.C1COCCN1.N.N.[Cl-].[Pt+2]	> 100 µM
CCn1c(-c2nonc2N)nc2c(C#CCN)ncc(OCCCN)c21	> 25 µM
COC(=O)c1cc(CC(C)C)c2c(c1)[nH]c1ccccc12	> 100 µM
Clc1nc(Cl)nc(NC23CC4CC(CC(C4)C2)C3)n1	36.8 µM
CC12CC(c3ccccc3O1)C(C(=O)Nc1ccc(F)cc1)C(=O)N2 (stereo not drawn)	> 100 µM
COC(=O)C(=O)CC(=O)CCn1ncc(Cl)c(Cl)c1=O	21.9 µM
COc1cc(C(=O)NC2c3ccccc3-c3ccccc32)c(N)cc1OCc1ccccc1	> 92.7 µM
COc1cc2oc(-c3ccc(O)cc3)c(OC3OC(C)C(O)C(O)C3O)c(=O)c2c(O)c1OC (stereo not drawn)	> 100 µM
CCOC(=O)c1c(NC(=O)c2ccccc2)sc2c1CCCC2	> 100 µM
Cc1cc2nc3c4cc(Cl)ccc4n(CCN(C)C)c3nc2cc1C	3.53 µM
O=[N+]([O-])[C@@H]1C2C=CC(C2)[C@H]1Cl (stereo partly drawn)	> 100 µM
Brc1cccc(-c2cc(-c3ccc4c(c3)OCCO4)[nH]n2)c1	55.5 µM
COc1ccc(-c2c(C#N)c(N)n(C3OC(CO)C(O)C(O)C3O)c(=S)c2C#N)cc1 (stereo not drawn)	> 100 µM
Nc1nc(Cl)cc(NCC2(CO)CC(CCc3ccccc3)C2)n1 (stereo not drawn)	> 100 µM
C=CC(=O)Nc1cccc(-c2nc(SC)nc(Nc3ccccc3OC)c2C#N)c1	5.71 µM
CCOC(=O)C(OCC1CC=CCC1)Sc1ccccc1 (stereo not drawn)	> 100 µM
